Target: α4β7 (Homo sapiens, UniProt P13612+P26010)
Sequence (P13612 34-1032): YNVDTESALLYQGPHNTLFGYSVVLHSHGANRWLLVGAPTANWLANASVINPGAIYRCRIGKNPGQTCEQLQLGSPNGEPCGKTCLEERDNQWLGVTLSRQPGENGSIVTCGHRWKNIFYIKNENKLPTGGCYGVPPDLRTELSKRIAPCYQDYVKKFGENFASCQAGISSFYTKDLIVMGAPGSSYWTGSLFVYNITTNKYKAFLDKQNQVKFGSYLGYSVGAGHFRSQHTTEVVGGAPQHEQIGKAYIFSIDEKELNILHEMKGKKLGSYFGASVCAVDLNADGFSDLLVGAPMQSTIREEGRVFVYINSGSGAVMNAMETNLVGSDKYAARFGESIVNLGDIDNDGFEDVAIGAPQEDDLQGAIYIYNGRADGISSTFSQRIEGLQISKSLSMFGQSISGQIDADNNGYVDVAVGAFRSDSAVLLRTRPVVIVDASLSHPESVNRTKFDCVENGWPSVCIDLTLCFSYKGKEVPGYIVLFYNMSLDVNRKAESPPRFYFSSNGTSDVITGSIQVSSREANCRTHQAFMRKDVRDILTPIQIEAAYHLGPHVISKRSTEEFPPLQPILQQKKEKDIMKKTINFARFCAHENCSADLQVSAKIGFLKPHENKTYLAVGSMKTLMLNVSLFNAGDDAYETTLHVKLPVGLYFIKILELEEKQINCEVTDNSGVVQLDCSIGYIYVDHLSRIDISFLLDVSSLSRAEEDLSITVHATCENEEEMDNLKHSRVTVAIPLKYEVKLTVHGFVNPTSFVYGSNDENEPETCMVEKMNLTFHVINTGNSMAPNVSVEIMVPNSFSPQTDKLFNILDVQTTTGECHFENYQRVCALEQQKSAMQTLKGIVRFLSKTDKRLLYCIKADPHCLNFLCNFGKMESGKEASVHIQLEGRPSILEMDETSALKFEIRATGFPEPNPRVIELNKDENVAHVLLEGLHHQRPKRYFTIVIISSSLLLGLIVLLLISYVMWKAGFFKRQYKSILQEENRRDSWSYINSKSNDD
Sequence (P26010 20-798): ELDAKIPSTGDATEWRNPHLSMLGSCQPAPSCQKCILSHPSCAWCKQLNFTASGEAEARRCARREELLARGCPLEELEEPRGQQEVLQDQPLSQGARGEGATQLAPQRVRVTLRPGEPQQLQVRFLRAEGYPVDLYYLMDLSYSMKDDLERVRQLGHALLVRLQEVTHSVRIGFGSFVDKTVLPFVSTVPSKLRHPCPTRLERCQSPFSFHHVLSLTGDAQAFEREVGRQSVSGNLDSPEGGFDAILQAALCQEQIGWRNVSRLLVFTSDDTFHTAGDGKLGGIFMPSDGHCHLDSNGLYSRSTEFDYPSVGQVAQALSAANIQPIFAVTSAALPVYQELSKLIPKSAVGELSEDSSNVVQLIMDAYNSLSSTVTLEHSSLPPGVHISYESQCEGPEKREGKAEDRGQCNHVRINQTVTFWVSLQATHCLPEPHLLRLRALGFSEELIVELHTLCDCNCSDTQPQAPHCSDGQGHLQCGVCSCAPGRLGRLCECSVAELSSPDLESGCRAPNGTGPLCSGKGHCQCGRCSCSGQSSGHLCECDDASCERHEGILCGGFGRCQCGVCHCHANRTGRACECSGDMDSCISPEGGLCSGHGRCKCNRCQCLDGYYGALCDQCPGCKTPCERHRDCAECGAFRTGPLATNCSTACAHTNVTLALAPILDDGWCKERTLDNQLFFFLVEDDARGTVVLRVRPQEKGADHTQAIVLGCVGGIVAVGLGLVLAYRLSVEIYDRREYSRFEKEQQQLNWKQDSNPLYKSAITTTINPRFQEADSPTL
Assay: α4β7-MAdCAM Cell Adhesion Assay (RPMI 8866 human cells)
Format: cell-based
Design: host or cells: RPMI 8866 human B lymphoblastoid cells
Conditions: Table 3-B, Potency (α4β7); range classes; read-out: α4β7 cell (Hu) IC50
Bridge positions count the residues as written; N and C are the ends. Square brackets hold non-standard residues; d marks the D form. Peptide text beside a SMILES is read from it. 2Nal = N[C@@H](Cc1ccc2ccccc2c1)C(=O)O; NMeR = CN[C@@H](CCCNC(=N)N)C(=O)O; Pen = CC(C)(S)[C@H](N)C(=O)O; hLeu = CC(C)CC[C@H](N)C(=O)O
PROPERTY_NAME: IC50

>  <COMPOUND>
CC(=O)N[C@@H]1C(=O)N(C)[C@@H](CCCNC(=N)N)C(=O)N[C@@H](CO)C(=O)N[C@@H](CC(=O)O)C(=O)N[C@@H]([C@@H](C)O)C(=O)N[C@@H](CC(C)C)C(=O)N[C@H](C(=O)N[C@@H](Cc2c[nH]c3ccccc23)C(=O)N[C@@H](CCC(=O)O)C(=O)O)C(C)(C)SSC1(C)C [compound 128] (Ac-[Pen][NMeR]SDTL[Pen]WE-OH; disulfide 1-7)

>  <IC50>
50 to 100 nM

$$$$
>  <COMPOUND>
CC(=O)N[C@@H]1C(=O)N(C)[C@@H](CCCNC(=N)N)C(=O)N[C@@H](CO)C(=O)N[C@@H](CC(=O)O)C(=O)N[C@@H]([C@@H](C)O)C(=O)N[C@@H](Cc2ccc(O)cc2)C(=O)N[C@H](C(=O)N[C@@H](Cc2ccc3ccccc3c2)C(=O)N[C@H](CCC(=O)O)C(N)=O)C(C)(C)SSC1(C)C [compound 164] (Ac-[Pen][NMeR]SDTY[Pen][2Nal][dE]-NH2; disulfide 1-7)

>  <IC50>
1000 to 10000 nM

$$$$

Now take the following compound into account.
Prompt line: Lab note: need IC50 with α4β7 (Homo sapiens, UniProt P13612+P26010) for entry CC(=O)N[C@@H]1C(=O)N(C)[C@@H](CCCNC(=N)N)C(=O)N[C@@H](CO)C(=O)N[C@@H](CC(=O)O)C(=O)N[C@@H](CCC(C)C)C(=O)N[C@@H](CC(C)C)C(=O)N[C@H](C(=O)N[C@@H](Cc2ccc3ccccc3c2)C(=O)N[C@H](CCC(=O)O)C(N)=O)C(C)(C)SSC1(C)C [compound 161] (Ac-[Pen][NMeR]SD[hLeu]L[Pen][2Nal][dE]-NH2; disulfide 1-7) , please look it up.
Response line: 1000 to 10000 nM

###

// IC50 lookup, one value per entry
Molecular target: α4β7 (Homo sapiens, UniProt P13612+P26010)
Assay: α4β7-MAdCAM Cell Adhesion Assay (RPMI 8866 human cells)
Format: cell-based
Design: host or cells: RPMI 8866 human B lymphoblastoid cells
Conditions: Table 4-B; read-out: Cell Adhesion α4β7 IC50
Procedure: RPMI 8866 human cells (Sigma #95041316) were cultured in RPMI 1640 HEPES medium (Invitrogen #22400-089) supplemented with 10% serum (Fetal Bovine Serum, Invitrogen #16140-071), 1 mM sodium pyruvate (Invitrogen #11360-070), 2 mM L-glutamine (Invitrogen #25030-081) and Penicillin-Streptomycin (Invitrogen #15140-122) at 100 units of penicillin and 100 μg of streptomycin per ml. The cells were washed two times in DMEM medium (ATCC #30-2002) supplemented with 0.1% BSA, 10 mM HEPES pH 7 and 1 mM MnCl2. […]
Bridge positions count the residues as written; N and C are the ends. Square brackets hold non-standard residues; d marks the D form. Peptide text beside a SMILES is read from it. NMeR = CN[C@@H](CCCNC(=N)N)C(=O)O; Pen = CC(C)(S)[C@H](N)C(=O)O
Dear colleague, please return just the value in nM, with no unit written.

>  <COMPOUND>
CC(=O)N[C@H]1CSSC[C@@H](C(=O)NCC(=O)N[C@@H](CCC(=O)O)C(=O)N[C@@H](CCCCN)C(=O)O)NC(=O)[C@H](CC(C)C)NC(=O)[C@H]([C@@H](C)O)NC(=O)[C@H](CC(=O)O)NC(=O)[C@H](CO)NC(=O)[C@H](CCCNC(=N)N)N(C)C1=O [compound 199, Ac-C-N-Me-R-S-D-T-L-C-G-E-K-OH] (Ac-C[NMeR]SDTLCGEK-OH; disulfide 1-7)

>  <UNIT_TEXT>
nM

>  <ENDPOINT_VALUE>
4690

$$$$
>  <COMPOUND>
CC(=O)N[C@@H]1C(=O)N(C)[C@@H](CCCNC(=N)N)C(=O)N[C@@H](CO)C(=O)N[C@@H](CC(=O)O)C(=O)N[C@@H]([C@@H](C)O)C(=O)N[C@@H](CC(C)C)C(=O)N[C@H](C(=O)N[C@@H](Cc2c[nH]c3ccccc23)C(=O)N[C@H](CCCCN)C(N)=O)C(C)(C)SSC1(C)C [compound 208, Ac-Pen-N-Me-R-S-D-T-L-Pen-W-k-NH2] (Ac-[Pen][NMeR]SDTL[Pen]W[dK]-NH2; disulfide 1-7)

>  <UNIT_TEXT>
nM

>  <ENDPOINT_VALUE>
412

$$$$
>  <COMPOUND>
CC(=O)N[C@H]1CSSC[C@@H](C(=O)NCC(=O)N[C@@H](CCC(=O)O)C(=O)N[C@@H](CCCCN)C(N)=O)NC(=O)[C@H](CC(C)C)NC(=O)[C@H]([C@@H](C)O)NC(=O)[C@H](CC(=O)O)NC(=O)[C@H](CO)NC(=O)[C@H](CCCNC(=N)N)NC1=O [compound 196, Ac-C-R-S-D-T-L-C-G-E-K-NH2] (Ac-CRSDTLCGEK-NH2; disulfide 1-7)

>  <UNIT_TEXT>
nM

>  <ENDPOINT_VALUE>
6660

$$$$
>  <COMPOUND>
CC(=O)N[C@H]1CSSC[C@@H](C(=O)NCC(=O)N[C@@H](CCC(=O)O)C(N)=O)NC(=O)[C@H](CC(C)C)NC(=O)[C@H]([C@@H](C)O)NC(=O)[C@H](CC(=O)O)NC(=O)[C@H](CO)NC(=O)[C@H](CCCNC(=N)N)NC1=O [compound 194, Ac-C-R-S-D-T-L-C-G-E-NH2] (Ac-CRSDTLCGE-NH2; disulfide 1-7)

>  <UNIT_TEXT>
nM

>  <ENDPOINT_VALUE>
590

$$$$
>  <COMPOUND>
CC(=O)N[C@H]1CSSC[C@@H](C(N)=O)NC(=O)[C@H](CC(C)C)NC(=O)[C@H]([C@@H](C)O)NC(=O)[C@H](CC(=O)O)NC(=O)[C@H](CO)NC(=O)[C@H](CCCNC(=N)N)NC1=O [compound 195, Ac-C-R-S-D-T-L-C-NH2] (Ac-CRSDTLC-NH2; disulfide 1-7)

>  <UNIT_TEXT>
nM

>  <ENDPOINT_VALUE>
1220

$$$$

Prompt line: I have this compound here, CC(=O)N[C@H]1CSSC[C@@H](C(=O)NCC(=O)N[C@@H](CCC(=O)O)C(N)=O)NC(=O)[C@H](CC(C)C)NC(=O)[C@H]([C@@H](C)O)NC(=O)[C@H](CC(=O)O)NC(=O)[C@H](CO)NC(=O)[C@H](CCCNC(=N)N)N(C)C1=O [compound 198, Ac-C-N-Me-R-S-D-T-L-C-G-E-NH2] (Ac-C[NMeR]SDTLCGE-NH2; disulfide 1-7) , and I need its recorded IC50.
Response line: 1120

Prompt line: How about this compound: CC(=O)N[C@H]1CSSC(C)(C)[C@@H](C(=O)N[C@H](CCCCN)C(N)=O)NC(=O)[C@H](CC(C)C)NC(=O)[C@H]([C@@H](C)O)NC(=O)[C@H](CC(=O)O)NC(=O)[C@H](CO)NC(=O)[C@H](CCCNC(=N)N)N(C)C1=O [compound 202, Ac-C-N-Me-R-S-D-T-L-Pen-k-NH2] (Ac-C[NMeR]SDTL[Pen][dK]-NH2; disulfide 1-7)
Response line: 11000

###

Biological target: α4β7 (Mus musculus, UniProt P26011+Q00651)
Construct: host or cells: TK1 mouse T cells
Sequence (Q00651 34-1039 limits assumed): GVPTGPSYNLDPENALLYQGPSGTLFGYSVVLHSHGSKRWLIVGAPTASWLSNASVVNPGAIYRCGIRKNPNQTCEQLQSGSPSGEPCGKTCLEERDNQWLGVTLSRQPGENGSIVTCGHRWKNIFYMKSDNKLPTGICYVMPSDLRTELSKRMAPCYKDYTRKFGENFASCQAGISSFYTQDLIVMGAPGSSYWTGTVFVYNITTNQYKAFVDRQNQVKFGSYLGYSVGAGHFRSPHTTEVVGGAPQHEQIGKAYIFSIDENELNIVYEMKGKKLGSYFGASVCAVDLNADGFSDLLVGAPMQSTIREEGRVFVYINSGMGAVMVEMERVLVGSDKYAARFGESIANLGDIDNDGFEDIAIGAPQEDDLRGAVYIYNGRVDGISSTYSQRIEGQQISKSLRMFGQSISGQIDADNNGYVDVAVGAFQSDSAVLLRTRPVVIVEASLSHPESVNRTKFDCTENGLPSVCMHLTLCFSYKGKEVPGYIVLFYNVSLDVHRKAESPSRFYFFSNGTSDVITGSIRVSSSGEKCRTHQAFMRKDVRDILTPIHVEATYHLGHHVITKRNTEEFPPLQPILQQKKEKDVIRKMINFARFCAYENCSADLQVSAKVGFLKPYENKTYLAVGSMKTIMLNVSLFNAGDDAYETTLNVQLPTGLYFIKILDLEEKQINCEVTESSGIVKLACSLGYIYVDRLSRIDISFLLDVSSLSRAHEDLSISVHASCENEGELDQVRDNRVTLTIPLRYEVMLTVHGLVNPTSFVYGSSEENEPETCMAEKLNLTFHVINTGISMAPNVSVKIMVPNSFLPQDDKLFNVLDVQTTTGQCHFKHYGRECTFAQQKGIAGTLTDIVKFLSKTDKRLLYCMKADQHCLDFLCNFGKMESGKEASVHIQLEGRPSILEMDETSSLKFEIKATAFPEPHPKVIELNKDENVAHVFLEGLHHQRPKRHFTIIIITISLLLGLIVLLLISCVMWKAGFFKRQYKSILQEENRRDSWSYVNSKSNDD
Sequence (P26011 20-806): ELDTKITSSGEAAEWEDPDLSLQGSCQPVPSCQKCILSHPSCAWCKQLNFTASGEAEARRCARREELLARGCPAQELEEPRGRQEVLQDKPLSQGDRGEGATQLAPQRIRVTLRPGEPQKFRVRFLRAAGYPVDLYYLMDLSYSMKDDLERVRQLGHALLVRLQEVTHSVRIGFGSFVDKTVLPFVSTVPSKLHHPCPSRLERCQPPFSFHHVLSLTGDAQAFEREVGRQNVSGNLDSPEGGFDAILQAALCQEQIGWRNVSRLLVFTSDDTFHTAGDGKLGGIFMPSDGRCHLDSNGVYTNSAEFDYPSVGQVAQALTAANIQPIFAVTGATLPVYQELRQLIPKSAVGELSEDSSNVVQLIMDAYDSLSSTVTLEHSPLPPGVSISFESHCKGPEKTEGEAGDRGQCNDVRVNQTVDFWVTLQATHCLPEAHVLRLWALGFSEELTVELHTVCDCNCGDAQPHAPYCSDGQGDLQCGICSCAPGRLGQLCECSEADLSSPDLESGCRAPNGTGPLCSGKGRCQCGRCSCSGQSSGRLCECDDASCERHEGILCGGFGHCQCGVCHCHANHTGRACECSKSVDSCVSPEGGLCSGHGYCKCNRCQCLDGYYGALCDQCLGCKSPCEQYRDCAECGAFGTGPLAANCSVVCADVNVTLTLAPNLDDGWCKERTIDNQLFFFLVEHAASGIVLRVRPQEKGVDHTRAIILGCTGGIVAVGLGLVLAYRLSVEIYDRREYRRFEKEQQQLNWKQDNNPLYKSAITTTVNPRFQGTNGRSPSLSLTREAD
Assay: α4β7 Cell Adhesion Assay (Mouse), TK1 cells
Type: cell-based
Settings: Table 3-B, Potency (α4β7); range classes; read-out: α4β7 cell(MU) IC50
pIC50: −log10 of the molar value. Bridge positions count the residues as written; N and C are the ends. Square brackets hold non-standard residues; d marks the D form. Peptide text beside a SMILES is read from it. Phe(4-tBu) = CC(C)(C)c1ccc(C[C@H](N)C(=O)O)cc1; 2Nal = N[C@@H](Cc1ccc2ccccc2c1)C(=O)O; NMeR = CN[C@@H](CCCNC(=N)N)C(=O)O; Tic = O=C(O)[C@@H]1Cc2ccccc2CN1; β3hE = N[C@@H](CCC(=O)O)CC(=O)O; Pen = CC(C)(S)[C@H](N)C(=O)O
PROPERTY_NAME: pIC50

Some solved entries appear below for comparison.
>  <COMPOUND>
CC(=O)N[C@@H]1C(=O)N(C)[C@@H](CCCNC(=N)N)C(=O)N[C@@H](CO)C(=O)N[C@@H](CC(=O)O)C(=O)N[C@@H]([C@@H](C)O)C(=O)N[C@@H](CC(C)C)C(=O)N[C@H](C(=O)N[C@@H](Cc2c[nH]c3ccccc23)C(=O)N[C@@H](CCC(=O)O)CC(=O)O)C(C)(C)SSC1(C)C [compound 146] (Ac-[Pen][NMeR]SDTL[Pen]W[β3hE]-OH; disulfide 1-7)

>  <pIC50>
7.00 to 7.30

$$$$
>  <COMPOUND>
CC(=O)N[C@@H]1C(=O)N(C)[C@@H](CCCNC(=N)N)C(=O)N[C@@H](CO)C(=O)N[C@@H](CC(=O)O)C(=O)N[C@@H]([C@@H](C)O)C(=O)N[C@@H](CC(C)C)C(=O)N[C@H](C(=O)N[C@@H](Cc2ccc3ccccc3c2)C(=O)N[C@@H](CCC(=O)O)CC(N)=O)C(C)(C)SSC1(C)C [compound 155] (Ac-[Pen][NMeR]SDTL[Pen][2Nal][β3hE]-NH2; disulfide 1-7)

>  <pIC50>
7.30 to 7.60

$$$$
>  <COMPOUND>
CC(=O)N[C@@H]1C(=O)N(C)[C@@H](CCCNC(=N)N)C(=O)N[C@@H](CO)C(=O)N[C@@H](CC(=O)O)C(=O)N[C@@H]([C@@H](C)O)C(=O)N[C@@H](CC(C)C)C(=O)N[C@H](C(=O)N2Cc3ccccc3C[C@H]2C(=O)N[C@@H](CCC(=O)O)CC(N)=O)C(C)(C)SSC1(C)C [compound 154] (Ac-[Pen][NMeR]SDTL[Pen][Tic][β3hE]-NH2; disulfide 1-7)

>  <pIC50>
5.00 to 6.00

$$$$
>  <COMPOUND>
CC(=O)N[C@@H]1C(=O)N(C)[C@@H](CCCNC(=N)N)C(=O)N[C@@H](CO)C(=O)N[C@@H](CC(=O)O)C(=O)N[C@@H]([C@@H](C)O)C(=O)N[C@@H](CC(C)C)C(=O)N[C@H](C(=O)N[C@@H](Cc2ccc(C(C)(C)C)cc2)C(=O)N[C@@H](CCC(=O)O)CC(=O)O)C(C)(C)SSC1(C)C [compound 152] (Ac-[Pen][NMeR]SDTL[Pen][Phe(4-tBu)][β3hE]-OH; disulfide 1-7)

>  <pIC50>
> 8.00

$$$$

Prompt line: Item under review: CC(=O)N[C@@H]1C(=O)N(C)[C@@H](CCCNC(=N)N)C(=O)N[C@@H](CO)C(=O)N[C@@H](CC(=O)O)C(=O)N[C@@H]([C@@H](C)O)C(=O)N[C@@H](CC(C)C)C(=O)N[C@H](C(=O)N[C@@H](Cc2ccc(C(C)(C)C)cc2)C(=O)N[C@@H](CCC(=O)O)CC(=O)N[C@H](CCCCN)C(N)=O)C(C)(C)SSC1(C)C [compound 153] (Ac-[Pen][NMeR]SDTL[Pen][Phe(4-tBu)][β3hE][dK]-NH2; disulfide 1-7) . Reported pIC50?
Response line: 7.60 to 8.00
